Each record here notes measured melting point.
value kind: melting point

1. CC=CCC1(CC=CC)C(=O)N=C2N=CC=CN21 (stereo not shown) = 149.5 °C (dec.)
2. CCCCC1(CCCC)C(=O)N=C2CCCCN21 = 35 to 40 °C
3. O=C1N=C2SC=CN2C1(Cc1cccs1)Cc1cccs1 = 286 °C (dec.)
4. CC1=CN2C(=NC(=O)C2(Cc2ccccc2)Cc2ccccc2)S1 = > 300 °C
